- System: dengue virus type 2
- protocol_text: Functional immunofluorescence assay to measure dose dependent changes in antiviral-drug inhibitory efficacy against Dengue virus type 2 Thailand/16681/84 in Vero E6/TMPRSS2 cells (cotreated with P-gp inhibitor, Elacridar). Cells are treated with antiviral candidates that are serially diluted, following infection, cells are fixed. EC50 is reported via analysis of immunofluorescence staining. The assay has been performed by Icahn School of Medicine at Mount Sinai.
- Format: organism-based, Chlorocebus sabaeus, VeroE6/TMPRSS2
- condition_summary: Dengue virus, VeroE6/TMPRSS2
pEC50: −log10 of the molar value.
Below, each of the molecules is paired with its reported pEC50 value.

Below, 9 molecules whose answers are already recorded.
I have this molecule here, NCCCc1cccc(NC(=O)c2cc(Cl)cc(NC(=O)OCc3ccccc3)c2)n1 , and I need its recorded pEC50. < 5.26

I have this molecule here, O=C(Nc1ccc2c(c1)CNC2)c1cc(C(F)(F)F)cc2[nH]ccc12 , and I need its recorded pEC50. < 4.78

I have this molecule here, O=C(NC[C@H]1CCCO1)[C@H](Nc1ccc2c(c1)CNC2)c1cc(Cl)cc(C2CC2)c1 , and I need its recorded pEC50. < 4.30

I have this molecule here, CC[C@H](Cc1nnn[nH]1)c1ccc(NC(=O)c2cc(Cl)cc(-n3cccc3)c2)cc1 , and I need its recorded pEC50. 4.37

I have this molecule here, N#Cc1cc(Cl)cc(C(=O)Nc2ccc3c(c2)CNC3)c1 , and I need its recorded pEC50. < 4.30

I have this molecule here, O=C(NCC1CCOCC1)[C@H](Nc1ccc2c(c1)CNC2)c1cc(Cl)cc2[nH]ncc12 , and I need its recorded pEC50. < 4.78

I have this molecule here, O=C(Nc1ccc2c(c1)CNC2)c1cc(Cl)cc(C2CC2)c1 , and I need its recorded pEC50. < 4.30

I have this molecule here, CCCC(=O)Nc1cc(Cl)cc(C(=O)Nc2cccc(CN)c2)c1 , and I need its recorded pEC50. < 4.30

I have this molecule here, O=C(Nc1ccc2c(c1)CNC2)c1cc(Br)cc2[nH]ncc12 , and I need its recorded pEC50. < 4.30

Please examine the following record next.
I have this molecule here, NCc1cccc(NC(=O)c2cc(Cl)cc(-n3cccc3)c2)c1 , and I need its recorded pEC50. 4.86

* * *

Below, each of the molecules is paired with its reported EC50 value.
- Tested on: dengue virus type 2
- protocol_text: Functional immunofluorescence assay to measure dose dependent changes in antiviral-drug inhibitory efficacy against Dengue virus type 2 Thailand/16681/84 in Vero E6/TMPRSS2 cells (cotreated with P-gp inhibitor, Elacridar). Cells are treated with antiviral candidates that are serially diluted, following infection, cells are fixed. EC50 is reported via analysis of immunofluorescence staining. The assay has been performed by Icahn School of Medicine at Mount Sinai.
- Type: organism-based, Chlorocebus sabaeus, VeroE6/TMPRSS2
- condition_summary: Dengue virus, VeroE6/TMPRSS2

Below, 4 molecules whose answers are already recorded.
I have this molecule here, O=C(NCc1ccc(F)cc1)[C@H](Nc1ccc2c(c1)CNC2)c1cc(Cl)cc2[nH]ncc12 , and I need its recorded EC50. > 50 µM

I have this molecule here, CCc1cc(Cl)cc(C(=O)Nc2ccc3c(c2)CNC3)c1 , and I need its recorded EC50. > 16.7 µM

I have this molecule here, O=C(Nc1ccc2c(c1)CNC2)c1cc(F)cc2[nH]ncc12 , and I need its recorded EC50. > 50 µM

I have this molecule here, CC(C)c1nc2c(C(=O)Nc3ccc4c(c3)CNC4)cc(Br)cc2[nH]1 , and I need its recorded EC50. > 16.7 µM

Next:
I have this molecule here, N#Cc1cc(Cl)cc([C@H](C#N)Nc2ccc3c(c2)CNC3)c1 , and I need its recorded EC50. > 16.7 µM
